These measurements were taken from patent US5236948A.

biological target: 5-LO (Homo sapiens, UniProt P09917); construct: incubating a test compound with heparinised human blood; endogenous in cells; assay: Test a) in vitro inhibition of LTB4 formation in heparinised human blood challenged with A23187 (radioimmunoassay)
Sequence (P09917 whole entry): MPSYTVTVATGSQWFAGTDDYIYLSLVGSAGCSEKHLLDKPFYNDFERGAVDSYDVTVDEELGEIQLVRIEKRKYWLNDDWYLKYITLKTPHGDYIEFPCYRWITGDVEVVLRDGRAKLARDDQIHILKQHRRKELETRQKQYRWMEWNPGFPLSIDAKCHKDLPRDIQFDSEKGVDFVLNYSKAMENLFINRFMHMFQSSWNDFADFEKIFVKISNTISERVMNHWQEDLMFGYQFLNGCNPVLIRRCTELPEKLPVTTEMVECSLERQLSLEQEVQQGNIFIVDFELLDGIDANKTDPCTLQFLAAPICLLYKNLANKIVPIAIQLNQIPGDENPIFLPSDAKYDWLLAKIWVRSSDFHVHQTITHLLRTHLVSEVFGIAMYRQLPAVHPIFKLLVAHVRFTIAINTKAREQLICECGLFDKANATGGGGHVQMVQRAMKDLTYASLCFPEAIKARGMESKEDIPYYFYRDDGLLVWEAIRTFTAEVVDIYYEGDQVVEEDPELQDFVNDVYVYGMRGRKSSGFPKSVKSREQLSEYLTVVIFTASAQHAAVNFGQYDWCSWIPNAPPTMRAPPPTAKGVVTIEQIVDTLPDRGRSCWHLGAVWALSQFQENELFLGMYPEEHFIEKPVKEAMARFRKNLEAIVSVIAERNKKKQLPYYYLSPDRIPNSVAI
Property measured: IC50 (nM)
Answers are plain numbers, in nM.

For each listed entry, give its IC50.
1. COC1(c2cccc(Sc3ccc(N(C)S(C)(=O)=O)cc3Cl)c2)CCOCC1
2. COC1(c2cccc(Sc3ccc(NS(C)(=O)=O)c(Cl)c3)c2)CCOCC1

90
1000
